Parameter: glycan array binding signal (z-score). Scope: all listed entries.
# study-target: Neu5Ac(a2-6)Gal(b1-4)GlcNAc(b1-6)[Gal(b1-3)GlcNAc(b1-3)]Gal(b1-4)Glc
# experiment-description: glycan array binding signal (z-score within array); higher = stronger binding
# assay-conditions: glycan notation: IUPAC condensed, linker removed
About 410 targets per protein were measured; listed, in parts, are those with the strongest signals and a random draw of the rest.

binder | glycan array binding signal (z-score)
EUL D1A second (Oryza sativa) (protein) GAATACTIGGVPVHTVRVFSAAGEDYCLTVRNGTACLAPKNPRDDYQHWIKDMRHSNKIRDEEGYPAFALVNKVTGEAIKHSTGQGHPVKLVPYNPEYQDESVLWTESKDVGKGFRCIRMVNNIYLNFDAFHGDKDHGGIHDGTEIVLWKWCEGDNQRWKILPWILEQKLISEEDLNSAVDHHHHHH | 0.242
Clec2 (Mus musculus), Q9JL99 (protein) MQDEDGYITLNIKPRKQALSSAEPASSWWRVMALVLLISSMGLVVGLVALGIMSVTQQKYLLAEKENLSATLQQLAKKFCQELIRQSEIKTKSTFEHKCSPCATKWRYHGDSCYGFFRRNLTWEESKQYCTEQNATLVKTASQSTLDYIAERITSVRWIGLSRQNSKKDWMWEDSSVLRKNGINLSGNTEENMNCAYLHNGKIHPASCKERHYLICERNAGMTRVDQLL | -0.654
BTL (Bryothamnion triquetrum) (protein) ADPICGSSGYSCTTPAILTPKSPGSFPSGYSKVIVTGVGGSYSVYIHRPDGFKVYKASEGGCASFGSYSGGGNSEVGKYGSGGTVVAVACK | -0.204

Value source: the supplement of paper PMC8728848
